# assay: in vitro
# Assay type: cell-based
# condition: human, HepG2 or HepG2.117 cells, 3-days incubation (unmarked values), ATPlite; mean value
Parameter: CC50 at 3 days. Scope: all listed entries.

Worked examples follow.
Look up CC50 at 3 days for this compound: CNC(=O)c1ccc(-n2c(N[C@H](C)c3cccnc3OC)nc3c(c2=O)C[C@@H](C)N(C(=O)c2ccc(Cl)c(Cl)c2)C3)cc1 (single isomer, unassigned) [Compound C285]
27.6 µM

Let us now turn to COc1ccccc1-n1c(NC(C)(C)C)nc2c(c1=O)CCN(C(=O)c1ccc(Cl)c(Cl)c1)C2 [Compound C53]
31.6 µM

Let us now turn to CC(C)Nc1nc2c(c(=O)n1-c1ccc(-c3cncs3)cc1)CCN(C(=O)c1ccc(Cl)c(Cl)c1)C2 [Compound C188]
> 50 µM

New cases:
Look up CC50 at 3 days for this compound: COc1ccccc1-n1c(N2CCCC2)nc2c(c1=O)CCN(C(=O)c1ccc(Cl)c(Cl)c1)C2 [Compound C39]
> 50 µM

Let us now turn to CC[C@@H]1Cc2c(nc(NC(C)C)n(-c3ccc(S(C)(=O)=O)cc3)c2=O)CN1C(=O)c1ccc(Cl)c(Cl)c1 (single isomer, unassigned) [Compound C158A]
> 50 µM

Let us now turn to CC(C)Nc1nc2c(c(=O)n1-c1ccc(C(=O)NCCN)cc1)C[C@@H](C)N(C(=O)c1ccc(Cl)c(Cl)c1)C2 [Compound C197]
> 50 µM

Let us now turn to COc1ccccc1-n1c(NCCO)nc2c(c1=O)CCN(C(=O)c1ccc(Cl)c(Cl)c1)C2 [Compound C37]
> 50 µM
